# TEST_METHOD_NOTES: Cytotoxicity in mock-infected MT-4 cells (MTT)
# Assay type: cell-based
# CONDITION_DESCRIPTION: human, 50% cytotoxic concentration
Response field label: string, one of Satisfied (CC50 strictly below 80 µM) or Not satisfied.

compound="CCCC(C(=O)O)c1c(C)nc2sc(C)c(CC)c2c1-c1ccc(C)cc1 (stereo not shown)" assigned_label=Satisfied
compound="CCCC(c1c(C)nc2sc3c(c2c1-c1ccc(C)cc1)CCCC3)C1SC(=O)NC1=O (stereo not shown)" assigned_label=Satisfied
compound="CCCC(C(=O)O)c1c(C)nc2sc3c(c2c1-c1ccc(C)cc1)CCCCC3 (stereo not shown)" assigned_label="Not satisfied"
compound="CCC(C)C(C(=O)O)c1c(C)nc2sc3c(c2c1-c1ccc(C)cc1)CCCC3 (stereo not shown)" assigned_label=Satisfied
compound="Cc1ccc(-c2c(C(C(=O)O)C(C)C)c(C)nc3sc4c(c23)CCCC4)cc1 (stereo not shown)" assigned_label="Not satisfied"
compound="C#CCC(C(=O)O)c1c(C)nc2sc3c(c2c1-c1ccc(C)cc1)CCCC3 (stereo not shown)" assigned_label="Not satisfied"

====

Recorded IC50 by entry
# TESTED_TARGET: LEDGF/p75-HIV-1 integrase interaction (Human immunodeficiency virus type 1 group M subtype B (isolate HXB2) (HIV-1), UniProt P04585)
# TEST_METHOD_NOTES: AlphaScreen assay of LEDGF-integrase interaction inhibition
# Assay type: binding
# CONDITION_DESCRIPTION: His6-tagged integrase 300 nM, flag-LEDGF/p75 100 nM; read-out: Alphascreen IC50
ATTRIBUTE_MEASURED: IC50 (µM)

compound="CCCC(C(=O)O)c1c(C)nc2sc3c(c2c1-c1ccc(C)cc1)CCC3 (stereo not drawn)" obs_value=6.61
compound="Cc1nc2sc3c(c2c(-c2cnn(C)c2)c1C(OC(C)(C)C)C(=O)O)CCCC3 (stereo not drawn)" obs_value=11.7
compound="CCCC(C(=O)O)c1c(C)nc2sc3c(c2c1-c1ccc(C)cc1)CCOC3 (stereo not drawn)" obs_value=7.8
compound="CCCC(C(=O)O)c1c(C)nc2sc3c(c2c1-c1ccc(OC(F)(F)F)cc1)CCCC3 (stereo not drawn)" obs_value=21.5
compound="CCCC(C(=O)O)c1c(C)nc2sc3ccccc3c2c1-c1ccc(C)cc1 (stereo not drawn)" obs_value=2.72
compound="Cc1ccc(-c2c(C(OC(C)(C)C)C(=O)O)c(C)nc3sc4c(c23)CCCC4)cc1 (stereo not drawn)" obs_value=0.05
compound="Cc1nc2sc3c(c2c(-c2ccc4ncsc4c2)c1C(OC(C)(C)C)C(=O)O)CCCC3 (stereo not drawn)" obs_value=0.43
compound="CCCC(C(=O)O)c1c(C)nc2sc3c(c2c1-c1ccco1)CCC3 (stereo not drawn)" obs_value=48
compound="CCCC(C(=O)O)c1c(C)nc2sc3c(c2c1-c1ccc2c(c1)OCO2)CCCC3 (stereo not drawn)" obs_value=4.76

====

# TEST_METHOD_NOTES: Cytotoxicity in mock-infected MT-4 cells (MTT)
# Assay type: cell-based
# CONDITION_DESCRIPTION: human, 50% cytotoxic concentration
# Procedure: A rapid and automated assay procedure was used for the in vitro evaluation of anti-HIV agents. […] The viabitlity of both HIV- and mock-infected cells was assessed spectrophotometrically via in situ reduction of 3-(4,5-dimethylthiazol-2-yl)-2,5-diphenyltetrazolium bromide (MTT). […] The percent protection achieved by the compound in HIV-infected cells was calculated by the following formula: […]
ATTRIBUTE_MEASURED: log10 of CC50 (log10 of the value in µM)

compound="CCCC(C(=O)NC#N)c1c(C)nc2sc3c(c2c1-c1ccc(C)cc1)CCCC3 (stereo not drawn) [Cpd 166]" obs_value=2.12
compound="CCCC(C(=O)O)c1c(C)nc2sc3c(c2c1-c1cccc(Cl)c1)CCCC3 (stereo not drawn) [Cpd 138]" obs_value=2.00
compound="Cc1ccc(-c2c(C(Cc3ccccc3)C(=O)O)c(C)nc3sc4c(c23)CCC4)cc1 (stereo not drawn) [Cpd 134]" obs_value=2.06
compound="CCCC(C(=O)O)c1c(C)nc2sc3c(c2c1-c1ccc(C(F)(F)F)cc1)CCC3 (stereo not drawn) [Cpd 116]" obs_value=1.17
compound="Cc1nc2sc3c(c2c(-c2cccnc2)c1C(OC(C)(C)C)C(=O)O)CCCC3 (stereo not drawn) [Cpd 173]" obs_value=2.35
compound="C=C(C(=O)O)c1c(C)nc2sc3c(c2c1-c1ccc(C)cc1)CCC3 [Cpd 124]" obs_value=2.07
compound="CCCC(C(=O)O)c1c(C)nc2sc3c(c2c1-c1cccnc1)CCCC3 (stereo not drawn) [Cpd 150]" obs_value=1.59
compound="CCCC(C(=O)O)c1c(C)nc2sc3c(c2c1-c1ccc(C)cc1)CCOC3 (stereo not drawn) [Cpd 133]" obs_value=2.22
compound="CCCC(C(=O)O)c1c(C)nc2sc3c(c2c1-c1cccc(C(F)(F)F)c1)CCCC3 (stereo not drawn) [Cpd 140]" obs_value=2.00
compound="CCCC(C(=O)O)c1c(C)nc2sc3c(c2c1-c1ccc(C)cc1)CC(C)C3 (stereo not drawn) [Cpd 127]" obs_value=1.92
compound="CCCC(C(=O)O)c1c(CC)nc2sc3c(c2c1-c1ccc(C)cc1)CCCC3 (stereo not drawn) [Cpd 181]" obs_value=1.91
compound="CCCC(C(=O)O)c1c(C)nc2sc3c(c2c1-c1cccc(OC)c1)CCCC3 (stereo not drawn) [Cpd 144]" obs_value=1.80
compound="CCCC(C(=O)O)c1c(C)nc2sc3c(c2c1-c1cccc(C)c1)CCCC3 (stereo not drawn) [Cpd 141]" obs_value=1.74
compound="Cc1nc2sc3c(c2c(-c2ccc4ncsc4c2)c1C(OC(C)(C)C)C(=O)O)CCCC3 (stereo not drawn) [Cpd 186]" obs_value=2.04
compound="CCCC(C(=O)O)c1c(C)nc2sc3c(c2c1-c1cc2ccccc2o1)CCCC3 (stereo not drawn) [Cpd 154]" obs_value=1.96
compound="CCCC(C(N)=O)c1c(C)nc2sc3c(c2c1-c1ccc(C)cc1)CCCC3 (stereo not drawn) [Cpd 167]" obs_value=1.42
compound="CCCC(C(=O)O)c1c(C)nc2sc3c(c2c1-c1ccco1)CCC3 (stereo not drawn) [Cpd 129]" obs_value=2.11
compound="CCCC(C(=O)O)c1c(C)nc2sc3c(c2c1-c1ccc(CC)cc1)CCCC3 (stereo not drawn) [Cpd 149]" obs_value=1.83
compound="CCCC(C(=O)O)c1c(C)nc2sc3c(c2c1-c1ccc(C)cc1)CCC3 (stereo not drawn) [Cpd 100]" obs_value=2.08
compound="Cc1ccc(-c2c(C(CC(C)(C)C)C(=O)O)c(C)nc3sc4c(c23)CCCC4)cc1 (stereo not drawn) [Cpd 162]" obs_value=1.86
compound="CCCC(C(=O)O)c1c(C)nc2sc3c(c2c1-c1ccccc1Cl)CCCC3 (stereo not drawn) [Cpd 137]" obs_value=2.05
compound="CCCC(C(=O)O)c1c(-c2ccccc2)nc2sc3c(c2c1-c1ccc(C)cc1)CCC3 (stereo not drawn) [Cpd 126]" obs_value=1.48
compound="CCOC(C(=O)O)c1c(C)nc2sc3c(c2c1-c1ccc(C)cc1)CCCC3 (stereo not drawn) [Cpd 171]" obs_value=2.11
compound="CCCC(c1nnn[nH]1)c1c(C)nc2sc3c(c2c1-c1ccc(C)cc1)CCCC3 (stereo not drawn) [Cpd 175]" obs_value=1.90
compound="CCCC(C(=O)O)c1c(C)nc2sc3c(c2c1-c1ccc(CC)cc1)CCC3 (stereo not drawn) [Cpd 117]" obs_value=1.73
compound="CCCC(C(=O)O)c1c(C)nc2sc3ccccc3c2c1-c1ccc(C)cc1 (stereo not drawn) [Cpd 120]" obs_value=2.00
compound="CCCC(C(=O)O)c1c(C)nc2sccc2c1-c1ccc(C)cc1 (stereo not drawn) [Cpd 119]" obs_value=2.04
compound="Cc1ccc(-c2c(C(CC(C)C)C(=O)O)c(C)nc3sc4c(c23)CCCC4)cc1 (stereo not drawn) [Cpd 136]" obs_value=1.94
compound="CCCC(C(=O)O)c1c(C)nc2sc(C)c(C)c2c1-c1ccc(C)cc1 (stereo not drawn) [Cpd 108]" obs_value=1.76
compound="CCCC(C(=O)O)c1c(C)nc2sc(C)cc2c1-c1ccc(C)cc1 (stereo not drawn) [Cpd 110]" obs_value=1.86
compound="CCCC(C(=O)O)c1c(C)nc2sc(CC)c(C)c2c1-c1ccc(C)cc1 (stereo not drawn) [Cpd 111]" obs_value=1.74
compound="CCCC(C(=O)O)c1c(C)nc2sc3c(c2c1-c1cccs1)CCC3 (stereo not drawn) [Cpd 130]" obs_value=2.11
compound="COCCC(C(=O)O)c1c(C)nc2sc3c(c2c1-c1ccc(C)cc1)CCC3 (stereo not drawn) [Cpd 122]" obs_value=1.90

Source: patent US8785638B2
